// Thymidylate synthase (Homo sapiens, UniProt P04818) IC50 records
Value expressed in µM; do not type the unit.

Some solved entries appear below for comparison.
> print(dat)
                                   compound  unitsofmeasure  reportedresult
1  C#CCN(Cc1ccc2c(c1)C(=O)C[C@H](C)N2)c1ccc(C(=O)NC(CCC(=O)O)C(=O)O)cc1 (stereo not given in full)              µM              24
2  C#CCN(Cc1ccc(C(=O)NC(CCC(=O)O)C(=O)O)cc1)Cc1ccc2c(c1)C(=O)CC(C)=N2 (stereo not given)              µM             1.4
3  C#CCN(Cc1ccc(C(=O)NC(CCC(=O)O)C(=O)O)cc1)Cc1ccc2nc(C)nc(O)c2c1 (stereo not given)              µM              83

Asked: Look up and report IC50, with Thymidylate synthase (Homo sapiens, UniProt P04818) as system, for C#CCN(Cc1ccc(C(=O)NC(CCC(=O)O)C(=O)O)cc1)Cc1ccc2ccnc(O)c2c1 (stereo not given)
Sequence (P04818 whole entry): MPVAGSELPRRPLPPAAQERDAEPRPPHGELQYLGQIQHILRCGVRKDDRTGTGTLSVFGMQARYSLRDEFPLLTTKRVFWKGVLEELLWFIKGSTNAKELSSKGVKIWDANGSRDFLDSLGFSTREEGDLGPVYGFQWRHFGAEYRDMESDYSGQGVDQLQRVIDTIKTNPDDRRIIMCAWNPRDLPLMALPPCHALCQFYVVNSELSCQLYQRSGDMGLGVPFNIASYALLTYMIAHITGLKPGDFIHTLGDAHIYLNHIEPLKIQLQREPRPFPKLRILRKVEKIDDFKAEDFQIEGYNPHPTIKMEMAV
Given back: 0.74

Asked: Look up and report IC50, with Thymidylate synthase (Homo sapiens, UniProt P04818) as system, for C#CCN(Cc1ccc(C(=O)NC(CCC(=O)O)C(=O)O)cc1)Cc1ccc2nc(N)nc(O)c2c1 (stereo not given)
Given back: 31

Measured values drawn from ChEMBL document CHEMBL1125864 for this set.
